measured target: UniProt Q13370
Sequence (Q13370 whole entry): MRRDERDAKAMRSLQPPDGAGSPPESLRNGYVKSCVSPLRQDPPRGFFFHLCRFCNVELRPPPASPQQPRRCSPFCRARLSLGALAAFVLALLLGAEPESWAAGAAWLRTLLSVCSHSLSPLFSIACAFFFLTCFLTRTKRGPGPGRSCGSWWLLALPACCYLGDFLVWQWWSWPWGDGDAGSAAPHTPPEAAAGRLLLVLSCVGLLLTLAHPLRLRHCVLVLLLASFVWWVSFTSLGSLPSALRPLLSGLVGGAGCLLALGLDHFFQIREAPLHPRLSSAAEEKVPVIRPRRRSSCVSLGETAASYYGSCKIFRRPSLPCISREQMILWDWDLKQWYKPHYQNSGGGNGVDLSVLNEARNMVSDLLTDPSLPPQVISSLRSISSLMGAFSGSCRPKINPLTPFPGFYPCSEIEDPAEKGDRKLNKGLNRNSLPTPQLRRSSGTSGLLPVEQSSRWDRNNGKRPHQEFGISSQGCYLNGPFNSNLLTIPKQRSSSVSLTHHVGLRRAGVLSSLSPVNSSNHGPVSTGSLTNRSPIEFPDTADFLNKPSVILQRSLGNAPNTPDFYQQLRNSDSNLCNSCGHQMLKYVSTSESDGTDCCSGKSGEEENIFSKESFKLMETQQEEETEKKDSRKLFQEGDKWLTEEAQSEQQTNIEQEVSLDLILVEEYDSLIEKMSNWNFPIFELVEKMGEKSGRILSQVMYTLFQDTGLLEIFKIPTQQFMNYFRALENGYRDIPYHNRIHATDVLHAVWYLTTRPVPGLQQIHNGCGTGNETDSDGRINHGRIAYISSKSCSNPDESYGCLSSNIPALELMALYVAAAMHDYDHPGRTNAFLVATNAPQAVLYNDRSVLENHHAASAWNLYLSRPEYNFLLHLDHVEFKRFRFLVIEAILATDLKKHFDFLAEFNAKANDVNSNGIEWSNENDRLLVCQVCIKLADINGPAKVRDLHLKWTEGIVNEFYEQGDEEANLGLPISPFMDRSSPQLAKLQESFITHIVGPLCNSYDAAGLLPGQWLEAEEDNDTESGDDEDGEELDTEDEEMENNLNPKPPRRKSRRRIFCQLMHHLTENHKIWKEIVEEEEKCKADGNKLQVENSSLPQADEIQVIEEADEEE
experimental protocol: Inhibition of human recombinant PDE3B
Reported IC50 is given for each of the following compounds.

{"compound": "CN(C(=O)CCCOc1ccc2[nH]c(=O)ccc2c1)C1CCCCC1 [CILOSTAMIDE]", "IC50": "69.1 nM"}
{"compound": "C/C(=N\\NS(=O)(=O)c1ccc(C)cc1)c1ccc2c(c1)C(C)(C)C(=O)N2", "IC50": "88.4 nM"}

---

Reported Activity is given for each of the following molecules.
System: Adipocyte
experimental protocol: Induction of lipolysis in human Adipocyte assessed as glycerol concentration at 10 uM relative to control
Format: functional
readout kind: Activity (%)

{"molecule": "CC(C)NCC(O)c1ccc(O)c(O)c1 (stereo unspecified)", "unit label": "%", "val": 214.39}
{"molecule": "CCCC(NS(=O)(=O)c1ccc2c(c1)CCCC(=O)N2)c1cccs1 (stereo unspecified)", "unit label": "%", "val": 130.2}
{"molecule": "CC1=NN(S(=O)(=O)c2ccc(C)cc2)C(O)(C(F)(F)F)C1 (stereo unspecified)", "unit label": "%", "val": 116.67}
{"molecule": "C/C(=N\\NS(=O)(=O)c1ccc(C)cc1)c1ccc2c(c1)C(C)(C)C(=O)N2", "unit label": "%", "val": 171.5}
{"molecule": "CN(C(=O)CCCOc1ccc2[nH]c(=O)ccc2c1)C1CCCCC1 [CILOSTAMIDE]", "unit label": "%", "val": 192.4}
{"molecule": "Cc1ccc(S(=O)(=O)N/N=C2\\CC(C)(C)Oc3ccc([N+](=O)[O-])cc32)cc1", "unit label": "%", "val": 116.67}
